All figures here come from PubChem BioAssay (NCATS).

Test system: KB-3-1
Experiment Summary: Cytotoxic Profiling of Annotated Libraries Using Quantitative High-Throughput Screening (AID 1296008); note: nearly all actives have a fitted effect of over 60% in size
Experimental Context: Five cell lines viability, CellTiter-Glo ATP luminescence, 48-72 h
Records with an inconclusive call do not appear. The source made the active and inactive calls. Calls come from the whole dose curve; as a rule, active = well fitted inhibition curve with a large enough effect; inconclusive = small, poorly fitted or top-dose-only effect; inactive = flat fitted curve, though single readings scatter.
Possible outcomes: y (active), n (inactive)

| Compound | Cat |
| --- | --- |
| CN1CCC(Nc2nc(Nc3ccc(Oc4ccccc4)cc3)c3c(=O)[nH]cc(Br)c3n2)CC1 | y |
| COc1cc2c(NC3CCN(CC4CCCCC4)CC3)nc(N3CCCN(C(C)C)CC3)nc2cc1OCCCN1CCCCC1 | y |
| C[C@@H]1O[C@@H](O[C@H]2[C@H](O)[C@@H](O)[C@H](O[C@H]3[C@H](O[C@H]4CC[C@@]5(C)C(=CC[C@@H]6C5CC[C@]5(C)[C@@H]7[C@H](C[C@@H]65)O[C@]5(CC[C@@](C)(CO[C@@H]6O[C@H](CO)[C@@H](O)[C@H](O)[C@H]6O)O5)[C@H]7C)C4)O[C@H](CO)[C@@H](O)[C@@H]3O)O[C@@H]2CO)[C@H](O)[C@H](O)[C@H]1O (some centres not stated) | y |
| CC1(C)CC[C@@]2(C(=O)O[C@@H]3O[C@H](CO)[C@@H](O)[C@H](O)[C@H]3O)C(C1)C1=CCC3[C@@]4(C)CC[C@@H](O[C@@H]5O[C@H](C(=O)O)[C@@H](O[C@@H]6OC[C@@H](O)[C@H](O)[C@H]6O)[C@H](O[C@@H]6OC[C@](O)(CO)[C@H]6O)[C@H]5O)C(C)(C)C4CC[C@@]3(C)[C@]1(C)C[C@H]2O (some centres not stated) | n |
| CN[C@H](C(=O)N[C@H](C(=O)N(C)[C@H](/C=C(\C)C(=O)O)C(C)C)C(C)(C)C)C(C)(C)c1ccccc1 | y |
| CC(C)CC1NC(=O)C(C)NC(=O)C(CC(C)C)OC(=O)CCCNC1=O (configuration not stated) | n |
| Cc1ncc(CCCN(C)C)cc1Nc1ncc2c(n1)-c1ccc(C(F)(F)F)cc1NC(=S)C2 | y |
| COc1cc(Nc2nc3c(s2)CCCC3c2ccc(F)cc2)ccc1-n1cnc(C)c1 (configuration not stated) | y |
| Cc1cc(Nc2nc(NC(C)c3ncc(F)cn3)ncc2Cl)n[nH]1 (configuration not stated) | n |
| O=C1NC(Cc2c[nH]c3ccccc23)C(=O)NC1Cc1cnc[nH]1 (configuration not stated) | n |
| Nc1ncnc2c1ncn2CCNCCCCCO | n |
| Cc1ccc(S(=O)(=O)Cc2nc(-c3ccc(C(=O)NCc4cccnc4)cc3)oc2C)cc1 | y |
| Nc1nc(Nc2ccc(S(N)(=O)=O)cc2)n(C(=S)Nc2c(F)cccc2F)n1 | y |
| O=C(Nc1ccc(S(=O)(=O)C(F)(F)F)cc1)C1=CCN(c2ncccc2C(F)(F)F)CC1 | y |
| CC(=O)OC1C[C@@]2(C)[C@@H](CC[C@@H](C)[C@]23Cc2c(O)cc4c(c2O3)CNC4=O)C(C)(C)[C@@H]1O (some centres not stated) | n |
| CC(=O)NC1=NN(C(C)=O)C(C)(c2ccccc2)S1 (configuration not stated) | y |
| O=C(CSc1nc2c(c(=O)n1-c1ccccc1)SCC2)Nc1ccc(-c2ccccc2)cn1 | y |
| CC(=O)OC12COC1CC(O)C1(C)C(=O)C(O)C3=C(C)C(OC(=O)C(O)C(NC(=O)OC(C)(C)C)c4ccccc4)CC(O)(C(OC(=O)c4ccccc4)C21)C3(C)C (configuration not stated) | y |
| CC1CCN(C(=O)CC#N)CC1N(C)c1ncnc2[nH]ccc12 (configuration not stated) | n |
| COc1cc(Br)c(Nc2nc(-c3c(C)nc4ncccn34)cs2)c(Br)c1 | y |
| CCN(CC)CCN(Cc1ccc(-c2ccc(C(F)(F)F)cc2)cc1)C(=O)Cn1c(SCc2ccc(F)cc2)nc(=O)c2c1CCC2 | y |
| CC(=O)SCC(=O)c1ccc(NS(=O)(=O)c2ccc(OCCCN(C)C)cc2)nc1 | y |
| Cc1c(CN2CCN(C(=O)C(C)O)CC2)sc2c(N3CCOCC3)nc(-c3cnc(N)nc3)nc12 (configuration not stated) | y |
| COc1ccc(F)cc1-c1cc(NC(=O)[C@@H]2CCCNC2)ncc1Cl | y |
| C=C1CN(Cc2ccc(C(=O)Nc3ccccc3N)cc2)C(=O)c2ccccc21 | y |
| CC[C@@H](N)CNc1ccnc(-c2cc(-c3cnn(C)c3)ccc2O)n1 | y |
| O=C(c1ccccc1)c1ccc2nc(NC(=O)c3csc(C4CCN(c5ncnc6ccsc56)CC4)n3)[nH]c2c1 | y |
| OC[C@H]1O[C@@H](OCCc2ccccc2)[C@H](O[C@@H]2OC[C@](O)(CO)[C@H]2O)[C@@H](O)[C@@H]1O | n |
| C[C@@H](Oc1cc(-n2cnc3ccc(OC4CCN(C)CC4)cc32)sc1C(N)=O)c1ccccc1C(F)(F)F | y |
| CC(Oc1ccc2[nH]nc(/C=C/c3cnn(CCO)c3)c2c1)c1c(Cl)cncc1Cl (configuration not stated) | y |
| CC/C=C\CCO[C@@H]1O[C@H](CO[C@@H]2OC[C@H](O)[C@H](O)[C@H]2O)[C@@H](O)[C@H](O)[C@H]1O | n |
| CNC(=O)c1ccccc1Nc1nc(Nc2ccc3c(c2OC)CCC[C@@H](N2CCN(CCO)CC2)C3)ncc1Cl | y |
